tested on: A549 NSCLC; experiment: NCI tumour cell line growth inhibition, 48 h; in the data active = GI50 below about 0.43 µM; inactive = the rest
Choose one outcome from this list and give only that: active, inactive

| Compound | Answer label |
| --- | --- |
| CCOC(=O)c1cc(C(=O)c2cc(OC)c(OC)c(OC)c2)n2ccc(-c3cc[n+](CC(=O)c4cc(OC)c(OC)c(OC)c4)cc3)cc12 | inactive |
| O=C(COc1cccc(/C=C2\Oc3ccc4ccccc4c3C2=O)c1)c1ccc([N+](=O)[O-])cc1 | inactive |
| COc1ccc(NC(=O)c2cccc(C3CCc4c(cc(OC)c(OC)c4OC)O3)c2)cc1 (stereo not drawn) | inactive |

# input for lookup
Recorded test outcome, item Cc1nn(-c2ccccc2)c2nc(C)n(-c3ccc(Br)cc3)c(=O)c12 inactive

###

The reader will find reported TGI values listed item by item below.
test system: A549 NSCLC; experiment: NCI tumour cell line growth inhibition, 48 h

Here is how some compounds turned out for TGI.
| Compound | Experimental endpoint | Readout value |
| --- | --- | --- |
| N#CCC(=O)Nc1ccccc1O | TGI | > 100 µM |
| Cc1ccc(O)c(C2=NNC(c3cccc(Cl)c3)C2)c1 (stereo unspecified) | TGI | > 100 µM |
| CC(=O)OCC1=CC2CCC3C(C)(CCC[C@]3(C)COC(C)=O)C23CC[C@H]1C3 (stereo partly specified) | TGI | > 100 µM |
| COc1ccc2c(c1)C(=O)c1c-2n(CCCCl)c(=O)c2cc(N)ccc12 | TGI | > 100 µM |

Given the compound Nc1ncc2c(n1)-c1ccccc1OC2N1CCOCC1 (stereo unspecified) , write its reported TGI. > 100 µM

Given the compound Nn1c(CCCCCCCCc2n[nH]c(=S)n2N)n[nH]c1=S , write its reported TGI. > 100 µM

Given the compound C/C(=C\CC/C=C(\C)CC/C=C(\C)CCC1SC1(C)C)CC/C=C(\C)CCC1OC1(C)C (stereo unspecified) , write its reported TGI. > 100 µM

Given the compound O=C(NCCN(CCNC(=O)c1cccc(=O)n1O)CCNC(=O)c1cccc(=O)n1O)c1cccc(=O)n1O , write its reported TGI. > 100 µM

Given the compound CCOC(=O)c1cc(C(=O)c2cc(OC)c(OC)c(OC)c2)n2ccc(-c3cc[n+](CC(=O)c4cc(OC)c(OC)c(OC)c4)cc3)cc12 , write its reported TGI. 6.29 µM

Given the compound C[C@]12CC[C@H](O)CC1=CC[C@@H]1[C@@H]2CC[C@]2(C)NC(=O)/C(=C\c3ccccc3)C[C@@H]12 , write its reported TGI. 33.4 µM

Given the compound O=C(O)c1cc(Cl)cc(Cc2cc(Cl)cc(C(=O)O)c2O)c1O , write its reported TGI. > 100 µM

Given the compound O=Cc1ccc(-c2ccc(S(=O)(=O)O)cc2)o1 , write its reported TGI. > 100 µM

Given the compound CCN(CC)CCCNc1cc(OC)c(OC)c2cccnc12 , write its reported TGI. 38.1 µM

###

GI50, MDA-MB-435: measured values

Here is how some molecules turned out for GI50.
| Molecule | Experimental endpoint | Readout value |
| --- | --- | --- |
| CCC(=C(c1ccc(OCCN2CCCC2)cc1)c1ccc(OCCN2CCCC2)cc1)c1ccc(Cl)cc1 | GI50 | 0.552 µM |
| CCS(=O)(=O)N1CCN(c2ccc(Nc3ncc(C(N)=O)c(NC4CC4)n3)cc2)CC1 | GI50 | 5.6 µM |

Given the molecule CCC(C(=O)[C@@H](C)[C@@H](O)[C@H](C)[C@@H]1O[C@@H]([C@@H](CC)C(=O)ONC(=O)c2ccccc2)CC[C@@H]1C)[C@H]1O[C@]2(C=CC(=O)[C@]3(CC[C@@](C)([C@H]4CC[C@](O)(CC)[C@H](C)O4)O3)O2)[C@H](C)C[C@@H]1C (stereo partly drawn) , write its reported GI50. 1.11 µM
